# Tested on: M14 melanoma
# assay: NCI tumour cell line growth inhibition, 48 h
Each record here notes measured TGI.
Express it in µM; write the number only.

{"compound": "CCCCCCCCCc1c(Cl)nc(Cl)nc1Cl", "TGI / µM": 11}
{"compound": "Cn1c(-c2ccccc2)c2cc3nc4ccccc4nc3cc2c1-c1ccccc1", "TGI / µM": 31.3}
{"compound": "O=C1Nc2ccccc2/C1=C/C(=O)c1ccc(N2CCCC2)cc1", "TGI / µM": 22.3}
{"compound": "CS(=O)(=O)Nc1ccc(Nc2c3ccccc3nc3cc([N+](=O)[O-])ccc23)cc1", "TGI / µM": 5.81}
{"compound": "Clc1ccc(C2=Nc3ccccc3SC(c3cccs3)C2)cc1 (stereo not given)", "TGI / µM": 30}

Lab note: next compound to report on.
So for CC(C)Oc1c(N(Cc2ccccc2)c2ccccc2C2SCCCS2)c(=O)c1=O , the logged TGI turned out to be 19.3

----------
Each record here notes measured GI50.
# Tested on: UACC-257 melanoma
# assay: NCI tumour cell line growth inhibition, 48 h

The cases that follow already have their GI50 on record.
{"smiles_data": "CCCCCCCCCCCCCCCCSC(=NCC)NCC", "GI50": "1.87 µM"}
{"smiles_data": "COc1cc2c3c(n(CCCn4ccnc4)c(=O)c2cc1OC)-c1cc2c(cc1C3=O)OCO2", "GI50": "1.2 µM"}
{"smiles_data": "CCOC(=O)C1=C(C)N=C2SC=C(c3ccccc3)N2[C@H]1c1cn[nH]c1-c1ccc(Cl)cc1", "GI50": "10.1 µM"}
{"smiles_data": "O=C(Cc1csc2nc(-c3ccc(Br)cc3)cn12)N/N=C/c1ccccc1", "GI50": "6.21 µM"}
{"smiles_data": "COc1cccc(C(=O)c2sc(Nc3ccc(N4CCN(C(C)C)CC4)cc3)nc2N)c1", "GI50": "3.03 µM"}
{"smiles_data": "Nc1ncc(-c2ccc3ncnc(N4CCc5ccc(Cl)cc54)c3c2)cn1", "GI50": "2.98 µM"}

Lab note: next compound to report on.
# GI50 measured on UACC-257 melanoma for item COc1cc2c(cc1OC)[C@@H]1C(=O)c3cc4c(cc3[C@@H]1N(CCN(C)C)C2=O)OCO4 = 0.784 µM

----------
# Tested on: U251 CNS
# assay: NCI tumour cell line growth inhibition, 48 h
Each record here notes measured TGI.
Express it in µM; write the number only.

The cases that follow already have their TGI on record.
{"compound": "CCN(Cc1ccccc1F)c1ccc(CO)c(Cl)c1", "target_system": "U251 CNS", "TGI, µM": 24.2}
{"compound": "O=C(c1ccccc1)c1c(C(F)(F)F)n([O-])c2ccc(F)cc2[n+]1=O", "target_system": "U251 CNS", "TGI, µM": 2.26}
{"compound": "CCOC(=O)C1=C(C)N=C2SC=C(c3ccccc3)N2[C@H]1c1cn[nH]c1-c1ccc(Cl)cc1", "target_system": "U251 CNS", "TGI, µM": 16.4}

Lab note: next compound to report on.
So for COc1ccc(N[C@H]([C@@H](c2ccccc2)S(=O)c2ccc(C)cc2)C(F)(F)F)cc1 (some centres undefined) , the logged TGI turned out to be 50.2

----------
# Tested on: MDA-MB-435
property_label: GI50

The cases that follow already have their GI50 on record.
{"smiles_data": "CCOC(=O)C1=C(C)N=C2SC=C(c3ccccc3)N2[C@H]1c1cn[nH]c1-c1ccc(Cl)cc1", "GI50": "4.07 µM"}
{"smiles_data": "COc1cc2c(cc1OC)[C@@H]1C(=O)c3cc4c(cc3[C@@H]1N(CCN(C)C)C2=O)OCO4", "GI50": "0.787 µM"}

Lab note: next molecule to report on.
# GI50 measured on MDA-MB-435 for item Cc1ccc(C(=Nc2ccccc2)N=P(c2ccccc2)(c2ccccc2)c2ccccc2)cc1 = 0.955 µM
